- Test system: mice bearing PSMA-expressing LNCAP cancer xenografts
- Protocol Summary: Biodistribution of 68Ga-labeled compounds
- Type: in vivo
- Cond: 3 h post-injection
Measured Quantity: Tumor:Muscle ratio
One number for each entry.

[[record]]
compound = "O=C([O-])CN1CCN(CC(=O)[O-])CCN(CC(=O)NCCCC[C@H](NC(=O)CNC(=O)CCCc2ccc(I)cc2)C(=O)NC[C@H]2CC[C@H](C(=O)N[C@@H](Cc3ccc4ccccc4c3)C(=O)NCCCC[C@H](NC(=O)N[C@@H](CCC(=O)O)C(=O)O)C(=O)O)CC2)CCN(CC(=O)[O-])CC1.[68Ga+3] [^68Ga-HTK03024]"
quantitative_result = 9.69


Note: attention shifts to another entry.
Reported Tumor:Muscle ratio for O=C([O-])CN1CCN(CC(=O)[O-])CCN(CC(=O)NCC2CCC(C(=O)NC(Cc3c4ccccc4cc4ccccc34)C(=O)NCCCCC(NC(=O)NC(CCC(=O)O)C(=O)O)C(=O)O)CC2)CCN(CC(=O)[O-])CC1.[68Ga+3] (centres unmarked) [^68Ga-HTK03041] was 73.8

###

- Test system: mice bearing PSMA-expressing LNCAP cancer xenografts
- Protocol Summary: Biodistribution of 68Ga-labeled compounds
- Assay type: in vivo
- Cond: 1 h post-injection
Values of Tumor:kidney ratio strictly less than 0.3 map to class 1, and values of at least 0.3 map to class 0.

# count of solved cases: 6
[[record]]
molecule = "CCCCCCC(NC(=O)C1CCC(CNC(=O)CN2CCN(CC(=O)[O-])CCN(CC(=O)[O-])CCN(CC(=O)[O-])CC2)CC1)C(=O)NCCCCC(NC(=O)NC(CCC(=O)O)C(=O)O)C(=O)O.[68Ga+3] (stereo not shown) [^68Ga-HTK03026]"
assigned_label = "class 1"

[[record]]
molecule = "O=C([O-])CN1CCN(CC(=O)[O-])CCN(CC(=O)NCC2CCC(C(=O)NC(Cc3ccc4ccc5cccc6ccc3c4c56)C(=O)NCCCCC(NC(=O)NC(CCC(=O)O)C(=O)O)C(=O)O)CC2)CCN(CC(=O)[O-])CC1.[68Ga+3] (stereo not shown) [^68Ga-HTK03029]"
assigned_label = "class 1"

[[record]]
molecule = "O=C([O-])CN1CCN(CC(=O)[O-])CCN(CC(=O)NCCCC[C@H](NC(=O)CNC(=O)CCCc2ccc(F)cc2)C(=O)NC[C@H]2CC[C@H](C(=O)N[C@@H](Cc3ccc4ccccc4c3)C(=O)NCCCC[C@H](NC(=O)N[C@@H](CCC(=O)O)C(=O)O)C(=O)O)CC2)CCN(CC(=O)[O-])CC1.[68Ga+3] [^68Ga-HTK03085]"
assigned_label = "class 1"

[[record]]
molecule = "Nc1ccc(CCCC(=O)NCC(=O)N[C@@H](CCCCNC(=O)CN2CCN(CC(=O)[O-])CCN(CC(=O)[O-])CCN(CC(=O)[O-])CC2)C(=O)NC[C@H]2CC[C@H](C(=O)N[C@@H](Cc3ccc4ccccc4c3)C(=O)NCCCC[C@H](NC(=O)N[C@@H](CCC(=O)O)C(=O)O)C(=O)O)CC2)cc1.[68Ga+3] [^68Ga-HTK03087]"
assigned_label = "class 1"

[[record]]
molecule = "O=C([O-])CN1CCN(CC(=O)[O-])CCN(CC(=O)NCCCC[C@H](NC(=O)CNC(=O)CCCc2ccc(Br)cc2)C(=O)NC[C@H]2CC[C@H](C(=O)N[C@@H](Cc3ccc4ccccc4c3)C(=O)NCCCC[C@H](NC(=O)N[C@@H](CCC(=O)O)C(=O)O)C(=O)O)CC2)CCN(CC(=O)[O-])CC1.[68Ga+3] [^68Ga-HTK03058]"
assigned_label = "class 0"

[[record]]
molecule = "O=C([O-])CN1CCN(CC(=O)[O-])CCN(CC(=O)NCCCC[C@H](NC(=O)CNC(=O)CCCc2ccc(I)cc2)C(=O)NC[C@H]2CC[C@H](C(=O)N[C@@H](Cc3ccc4ccccc4c3)C(=O)NCCCC[C@H](NC(=O)N[C@@H](CCC(=O)O)C(=O)O)C(=O)O)CC2)CCN(CC(=O)[O-])CC1.[68Ga+3] [^68Ga-HTK03024]"
assigned_label = "class 0"


From here, focus on the item given below.
Request: Please check: Tumor:kidney ratio for COc1ccc(CCCC(=O)NCC(=O)N[C@@H](CCCCNC(=O)CN2CCN(CC(=O)[O-])CCN(CC(=O)[O-])CCN(CC(=O)[O-])CC2)C(=O)NC[C@H]2CC[C@H](C(=O)N[C@@H](Cc3ccc4ccccc4c3)C(=O)NCCCC[C@H](NC(=O)N[C@@H](CCC(=O)O)C(=O)O)C(=O)O)CC2)cc1.[68Ga+3] [^68Ga-HTK03086] , strictly under 0.3 or not?
Result: class 0

###

- System: mice bearing PSMA-expressing LNCAP cancer xenografts
- Protocol Summary: Biodistribution of 68Ga-labeled compounds
- Assay type: in vivo
- Cond: 3 h post-injection
Measured Quantity: Adrenal glands uptake (% ID/g)
Give bare numbers, in % ID/g.

Dear colleague, could you send me Adrenal glands uptake for each of the items below? Thanks.
1. O=C([O-])CN1CCN(CC(=O)[O-])CCN(CC(=O)NCCCC[C@H](NC(=O)CNC(=O)CCCc2ccccc2)C(=O)NC[C@H]2CC[C@H](C(=O)N[C@@H](Cc3ccc4ccccc4c3)C(=O)NCCCC[C@H](NC(=O)N[C@@H](CCC(=O)O)C(=O)O)C(=O)O)CC2)CCN(CC(=O)[O-])CC1.[68Ga+3] [^68Ga-HTK03056]
2. O=C([O-])CN1CCN(CC(=O)[O-])CCN(CC(=O)NCC2CCC(C(=O)NC(Cc3c4ccccc4cc4ccccc34)C(=O)NCCCCC(NC(=O)NC(CCC(=O)O)C(=O)O)C(=O)O)CC2)CCN(CC(=O)[O-])CC1.[68Ga+3] (stereo not shown) [^68Ga-HTK03041]
3. O=C([O-])CN1CCN(CC(=O)[O-])CCN(CC(=O)NCCCC[C@H](NC(=O)CNC(=O)CCCc2ccc(Br)cc2)C(=O)NC[C@H]2CC[C@H](C(=O)N[C@@H](Cc3ccc4ccccc4c3)C(=O)NCCCC[C@H](NC(=O)N[C@@H](CCC(=O)O)C(=O)O)C(=O)O)CC2)CCN(CC(=O)[O-])CC1.[68Ga+3] [^68Ga-HTK03058]
4. Nc1ccc(CCCC(=O)NCC(=O)N[C@@H](CCCCNC(=O)CN2CCN(CC(=O)[O-])CCN(CC(=O)[O-])CCN(CC(=O)[O-])CC2)C(=O)NC[C@H]2CC[C@H](C(=O)N[C@@H](Cc3ccc4ccccc4c3)C(=O)NCCCC[C@H](NC(=O)N[C@@H](CCC(=O)O)C(=O)O)C(=O)O)CC2)cc1.[68Ga+3] [^68Ga-HTK03087]
5. O=C([O-])CN1CCN(CC(=O)[O-])CCN(CC(=O)NCCCC[C@H](NC(=O)CNC(=O)CCc2ccccc2)C(=O)NC[C@H]2CC[C@H](C(=O)N[C@@H](Cc3ccc4ccccc4c3)C(=O)NCCCC[C@H](NC(=O)N[C@@H](CCC(=O)O)C(=O)O)C(=O)O)CC2)CCN(CC(=O)[O-])CC1.[68Ga+3] [^68Ga-HTK03082]
6. O=C([O-])CN1CCN(CC(=O)[O-])CCN(CC(=O)NCCCC[C@H](NC(=O)CNC(=O)CCCc2ccc([N+](=O)[O-])cc2)C(=O)NC[C@H]2CC[C@H](C(=O)N[C@@H](Cc3ccc4ccccc4c3)C(=O)NCCCC[C@H](NC(=O)N[C@@H](CCC(=O)O)C(=O)O)C(=O)O)CC2)CCN(CC(=O)[O-])CC1.[68Ga+3] [^68Ga-HTK03089]

Result:
1: 3.95; 2: 4.04; 3: 4.46; 4: 0.90; 5: 0.38; 6: 2.76

For record COc1ccc(CCCC(=O)NCC(=O)N[C@@H](CCCCNC(=O)CN2CCN(CC(=O)[O-])CCN(CC(=O)[O-])CCN(CC(=O)[O-])CC2)C(=O)NC[C@H]2CC[C@H](C(=O)N[C@@H](Cc3ccc4ccccc4c3)C(=O)NCCCC[C@H](NC(=O)N[C@@H](CCC(=O)O)C(=O)O)C(=O)O)CC2)cc1.[68Ga+3] [^68Ga-HTK03086] the listed Adrenal glands uptake is 1.80

###

- System: mice bearing PSMA-expressing LNCAP cancer xenografts
- Protocol Summary: Biodistribution of 68Ga-labeled compounds
- Type: in vivo
- Cond: 3 h post-injection
Measured Quantity: Lacrimal uptake (% ID/g)
Give bare numbers, in % ID/g.

[[record]]
molecule = "Nc1ccc(CCCC(=O)NCC(=O)N[C@@H](CCCCNC(=O)CN2CCN(CC(=O)[O-])CCN(CC(=O)[O-])CCN(CC(=O)[O-])CC2)C(=O)NC[C@H]2CC[C@H](C(=O)N[C@@H](Cc3ccc4ccccc4c3)C(=O)NCCCC[C@H](NC(=O)N[C@@H](CCC(=O)O)C(=O)O)C(=O)O)CC2)cc1.[68Ga+3] [^68Ga-HTK03087]"
target = "mice bearing PSMA-expressing LNCAP cancer xenografts"
quantitative_result = 0.00


# context switch: different molecule, same Lacrimal uptake
Recorded Lacrimal uptake (molecule O=C([O-])CN1CCN(CC(=O)[O-])CCN(CC(=O)NCCCC[C@H](NC(=O)CNC(=O)CCCc2ccc(I)cc2)C(=O)NC[C@H]2CC[C@H](C(=O)N[C@@H](Cc3ccc4ccccc4c3)C(=O)NCCCC[C@H](NC(=O)N[C@@H](CCC(=O)O)C(=O)O)C(=O)O)CC2)CCN(CC(=O)[O-])CC1.[68Ga+3] [^68Ga-HTK03024] ): 3.57
